testName: AUC in ICR mouse at 5 mg/kg, po
Type: ADME, organism-based
conditions: in vivo
measurementType: AUC (ng·h/mL)
Dear colleague, please return just the value in ng·h/mL, with no unit written.

Lab note: CCN1CCN(Cc2cnc(Nc3cc(-c4cc(F)c5nc(C)n(C(C)C)c5c4)ncn3)cn2)CC1 gave AUC of 2550

----------
Below are compounds with their IC50 as measured on Cyclin-dependent kinase 4 (Homo sapiens, UniProt P11802).
Sequence (P11802 whole entry): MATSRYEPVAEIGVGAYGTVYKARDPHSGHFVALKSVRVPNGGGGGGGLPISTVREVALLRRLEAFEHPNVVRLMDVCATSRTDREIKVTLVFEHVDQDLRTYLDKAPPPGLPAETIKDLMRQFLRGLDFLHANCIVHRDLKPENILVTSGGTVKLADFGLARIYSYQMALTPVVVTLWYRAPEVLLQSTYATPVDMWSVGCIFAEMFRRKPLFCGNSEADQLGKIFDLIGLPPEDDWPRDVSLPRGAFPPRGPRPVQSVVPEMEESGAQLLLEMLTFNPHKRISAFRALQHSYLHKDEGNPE
Your answer should be a plain number; it is taken to be in nM.

The examples below pair each entry with its known result.
compound	IC50, nM
Cc1nc2c(F)cc(-c3cc(Nc4cnc(CN5CCN(CC(F)(F)F)CC5)cn4)ncn3)cc2n1C(C)C	5.6
CCN1CCN(Cc2ccc(Nc3cc(-c4cc(F)c5nc(C)n(C(C)C)c5c4)ncn3)nn2)CC1	13.8
CCN1CCC(C(C)c2cnc(Nc3cc(-c4cc(F)c5nc(C)n(C(C)C)c5c4)ncn3)cn2)CC1 (stereo unspecified)	18.3
Cc1nc2c(F)cc(-c3cc(Nc4cnc(CN5CCN(CC6CC6)CC5)cn4)ncn3)cc2n1C(C)C	2.9
CCN1CCN(Cc2cnc(Nc3cc(-c4cc(F)c5nc(C)n(C(C)C)c5c4)ncn3)nc2)CC1	35.9

// IC50 (Cyclin-dependent kinase 4 (Homo sapiens, UniProt P11802)) for CCN1CCC(Cc2cnc(Nc3cc(-c4cc(F)c5nc(C)n(C(C)C)c5c4)ncn3)cn2)CC1 = 2.4

Result for CCN1CCC(Oc2cnc(Nc3cc(-c4cc(F)c5nc(C)n(C(C)C)c5c4)ncn3)cn2)CC1 , tested on Cyclin-dependent kinase 4 (Homo sapiens, UniProt P11802), IC50: 8.8

Field IC50 (system: Cyclin-dependent kinase 4 (Homo sapiens, UniProt P11802)) for entry CCN1CCN(Cc2cnc(Nc3ncnc(-c4cc(F)c5nc(C)n(C(C)C)c5c4)c3F)cn2)CC1 = 283

CCN1CCN(Cc2cnc(Nc3cc(-c4cc(F)c5nc(C)n(C(C)C)c5c4)ccn3)cn2)CC1 tested on Cyclin-dependent kinase 4 (Homo sapiens, UniProt P11802) gave IC50: 2.1

I looked up CCN1CCN(Cc2cnc(Nc3cc(-c4cc(F)c5nc(C)n(C(C)C)c5c4)c(F)cn3)cn2)CC1 and its IC50 for Cyclin-dependent kinase 4 (Homo sapiens, UniProt P11802) was 1.6

So the reported IC50 for CCN1CCN(Cc2cnc(Nc3cc(-c4cc(F)c5nc(C)n(C(C)C)c5c4)ncn3)cn2)CC1 , on Cyclin-dependent kinase 4 (Homo sapiens, UniProt P11802), turned out to be 1.5

----------
testName: Half life in ICR mouse at 1 mg/kg, iv
Assay type: ADME, organism-based
conditions: in vivo
measurementType: half-life (h)
Express your answer in h, writing the number without its unit.

Lookup result for CCN1CCN(Cc2cnc(Nc3cc(-c4cc(F)c5nc(C)n(C(C)C)c5c4)ncn3)cn2)CC1 ; measured half-life: 1.6

----------
testName: Cmax in ICR mouse at 1 mg/kg, iv
Assay type: ADME, organism-based
Set-up: dose 1 mg/kg, route intravenous
conditions: in vivo
measurementType: Cmax
Just the number plus its unit, please.

CCN1CCN(Cc2cnc(Nc3cc(-c4cc(F)c5nc(C)n(C(C)C)c5c4)c(F)cn3)cn2)CC1 514 ng/mL

# ---- query compound ----
Short answer for CCN1CCN(Cc2cnc(Nc3cc(-c4cc(F)c5nc(C)n(C(C)C)c5c4)ncn3)cn2)CC1 : Cmax was 998 ng/mL

----------
Tested on: COLO 205
testName: Antiproliferative activity against human COLO205 cells after 96 hrs by CCK-8 assay
Type: functional, cell-based
conditions: COLO 205, 96 h
measurementType: IC50 (µM)
Answer format: numeric, µM implied, no suffix.

CCN1CCN(Cc2ccc(Nc3cc(-c4cc(F)c5nc(C)n(C(C)C)c5c4)ncn3)nc2)CC1 0.26
Cc1nc2c(F)cc(-c3cc(Nc4cnc(CN5CCN(CC(F)(F)F)CC5)cn4)ncn3)cc2n1C(C)C 0.53
CCN1CCN(Cc2ccc(Nc3cc(-c4cc(F)c5nc(C)n(C(C)C)c5c4)ccn3)nc2)CC1 0.14
CCN1CCC(Cc2cnc(Nc3cc(-c4cc(F)c5nc(C)n(C(C)C)c5c4)ncn3)cn2)CC1 0.32

Observed IC50 on COLO 205, entry CCN1CCN(Cc2ccc(Nc3cc(-c4cc(F)c5nc(C)n(C(C)C)c5c4)ncn3)nn2)CC1 , equals 0.52

// compound Cc1nc2c(F)cc(-c3cc(Nc4cnc(CN5CCN(C6CCCC6)CC5)cn4)ncn3)cc2n1C(C)C , assay COLO 205, IC50 value: 0.16

----------
testName: Clearance in ICR mouse at 1 mg/kg, iv
Type: ADME, organism-based
conditions: in vivo
measurementType: clearance (mL/min/kg)
Report the figure in mL/min/kg without appending any unit label.

Entry under test: CCN1CCN(Cc2cnc(Nc3cc(-c4cc(F)c5nc(C)n(C(C)C)c5c4)c(F)cn3)cn2)CC1 . Its clearance was 37.6

----------
Items are presented alongside their recorded IC50.
System: COLO 205
testName: Antiproliferative activity against human COLO205 cells after 96 hrs by CCK-8 assay
Format: functional, cell-based
conditions: COLO 205, 96 h
// units = nM; emit number, no label

Use the examples below as a reference point.
compound	IC50 / nM
CCN1CCN(Cc2ccc(Nc3ncc(F)c(-c4cc(F)c5nc(C)n(C(C)C)c5c4)n3)nc2)CC1	460
Cc1nc2c(F)cc(-c3cc(Nc4cnc(CN5CCN(C(C)C)CC5)cn4)ncn3)cc2n1C(C)C	140
CCN1CCN(Cc2ccc(Nc3cc(-c4cc(F)c5nc(C)n(C(C)C)c5c4)ccn3)nn2)CC1	340
CCN1CCC(C(C)c2cnc(Nc3cc(-c4cc(F)c5nc(C)n(C(C)C)c5c4)ncn3)cn2)CC1 (stereo not given)	1510

Record summary for CCN1CCC(Oc2cnc(Nc3cc(-c4cc(F)c5nc(C)n(C(C)C)c5c4)ncn3)cn2)CC1 : reported IC50 = 460

// field: IC50; key: Cc1nc2c(F)cc(-c3cc(Nc4cnc(CN5CCN(CC6CC6)CC5)cn4)ncn3)cc2n1C(C)C ; value = 110

For record CCN1CCN(Cc2cnc(Nc3cc(-c4cc(F)c5nc(C)n(C(C)C)c5c4)ncn3)cn2)CC1 the listed IC50 is 210

IC50 for CCN1CCN(Cc2cnc(Nc3cc(-c4cc(F)c5nc(C)n(C(C)C)c5c4)c(F)cn3)cn2)CC1 is 40

Form field IC50, entry CCN1CCN(Cc2cnc(Nc3ncnc(-c4cc(F)c5nc(C)n(C(C)C)c5c4)c3F)cn2)CC1 : 5600

Briefly, IC50 measured for COCCN1CCN(Cc2cnc(Nc3cc(-c4cc(F)c5nc(C)n(C(C)C)c5c4)ncn3)cn2)CC1 : 140

----------
testName: Volume of distribution at steady state in ICR mouse at 1 mg/kg, iv
Format: ADME, organism-based
conditions: in vivo, read-out: Vdss
measurementType: Vd (L/kg)
Please state the figure in L/kg; there is no need to write the unit.

CCN1CCN(Cc2cnc(Nc3cc(-c4cc(F)c5nc(C)n(C(C)C)c5c4)ncn3)cn2)CC1 0.57

Now consider a different compound.
Entry CCN1CCN(Cc2cnc(Nc3cc(-c4cc(F)c5nc(C)n(C(C)C)c5c4)c(F)cn3)cn2)CC1 — recorded Vd = 6.44

----------
Record type: pIC50 measurement. Applies to: UniProt:Q00534
Sequence (Q00534 whole entry): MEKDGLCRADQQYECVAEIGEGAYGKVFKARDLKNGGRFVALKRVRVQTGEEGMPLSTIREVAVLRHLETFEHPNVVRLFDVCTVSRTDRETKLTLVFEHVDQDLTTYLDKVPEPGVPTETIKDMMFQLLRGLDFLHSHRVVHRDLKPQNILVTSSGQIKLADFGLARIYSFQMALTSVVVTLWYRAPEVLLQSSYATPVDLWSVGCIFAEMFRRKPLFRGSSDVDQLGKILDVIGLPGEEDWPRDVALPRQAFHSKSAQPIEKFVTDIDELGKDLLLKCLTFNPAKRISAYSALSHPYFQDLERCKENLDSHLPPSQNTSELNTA
Expect pIC50 as a plain number equal to -log10 of the molar concentration.

COCCN1CCN(Cc2cnc(Nc3cc(-c4cc(F)c5nc(C)n(C(C)C)c5c4)ncn3)cn2)CC1 8.80
CCN1CCC(Cc2cnc(Nc3cc(-c4cc(F)c5nc(C)n(C(C)C)c5c4)ncn3)cn2)CC1 8.54
Cc1nc2c(F)cc(-c3cc(Nc4cnc(CN5CCN(CC(F)(F)F)CC5)cn4)ncn3)cc2n1C(C)C 8.24
CCN1CCN(Cc2ccc(Nc3cc(-c4cc(F)c5nc(C)n(C(C)C)c5c4)ccn3)nc2)CC1 8.54
CCN1CCN(Cc2cnc(Nc3cc(-c4cc(F)c5nc(C)n(C(C)C)c5c4)ncn3)cn2)CC1 8.57

Below: the item to evaluate.
Sure, the documented pIC50 for Cc1nc2c(F)cc(-c3cc(Nc4cnc(CN5CCN(CC6CC6)CC5)cn4)ncn3)cc2n1C(C)C is 8.66

----------
Quick note: these are log10(IC50) numbers for system: Cyclin-dependent kinase 1 (Homo sapiens, UniProt P06493)
Sequence (P06493 whole entry): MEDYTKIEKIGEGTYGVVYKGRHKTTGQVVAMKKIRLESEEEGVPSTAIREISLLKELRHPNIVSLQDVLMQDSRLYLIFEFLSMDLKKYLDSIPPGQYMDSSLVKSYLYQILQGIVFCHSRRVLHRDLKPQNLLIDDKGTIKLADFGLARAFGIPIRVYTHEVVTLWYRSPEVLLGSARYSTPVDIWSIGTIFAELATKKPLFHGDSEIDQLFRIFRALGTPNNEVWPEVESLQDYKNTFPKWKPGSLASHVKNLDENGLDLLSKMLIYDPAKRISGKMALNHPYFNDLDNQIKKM
Quick note: numbers are log10 of IC50, with nM as the unit.

Use the examples below as a reference point.
molecule	testValue
Cc1nc2c(F)cc(-c3cc(Nc4cnc(CN5CCN(C(C)C)CC5)cn4)ncn3)cc2n1C(C)C	1.99
CCN1CCN(Cc2cnc(Nc3cc(-c4cc(F)c5nc(C)n(C(C)C)c5c4)ncn3)nc2)CC1	4.31
CCN1CCN(Cc2cnc(Nc3cc(-c4cc(F)c5nc(C)n(C(C)C)c5c4)ncn3)cn2)CC1	2.13
CCN1CCN(Cc2cnc(Nc3cc(-c4cc(F)c5nc(C)n(C(C)C)c5c4)ccn3)cn2)CC1	1.55
CCN1CCC(Cc2cnc(Nc3cc(-c4cc(F)c5nc(C)n(C(C)C)c5c4)ncn3)cn2)CC1	2.13

Field log10(IC50) (system: Cyclin-dependent kinase 1 (Homo sapiens, UniProt P06493)) for entry CCN1CCC(C(C)c2cnc(Nc3cc(-c4cc(F)c5nc(C)n(C(C)C)c5c4)ncn3)cn2)CC1 (configuration not stated) = 3.15

Hey, Cyclin-dependent kinase 1 (Homo sapiens, UniProt P06493) data for CCN1CCN(Cc2ccc(Nc3cc(-c4cc(F)c5nc(C)n(C(C)C)c5c4)ncn3)nc2)CC1 : log10(IC50) came out at 2.61
